The values you see were collected from PubChem BioAssay.

Would you mind telling me the reported viability of each entry?
- measurement_description: growth inhibitors of H69AR lung tumor, primary screen, human, duplicate replicates (AID 580);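 also: 100% = mean luminescence of untreated wells and 0% = no signal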
- assay_conditions: H69AR lung tumor cells viability, ATP luminescence, 72 h; at 10 µM; hits give low values
Only the number, expressed in %, is required.

Q: Return reported viability; argument: `O=C(Nc1ccccc1C(F)(F)F)c1cc(S(=O)(=O)N2CCOCC2)ccc1F`
Ans: 90.4

Q: Return reported viability; argument: Cc1nc2sc(C(c3ccco3)N3CCN(c4ccccc4F)CC3)c(O)n2n1 (stereo unspecified)
Ans: 97.5

Q: Recorded viability for COc1ccccc1CN1C(=O)CCC1(C)C(=O)NC1CCCCCC1 (stereo unspecified) , please?
Ans: 98.1

Q: Reported viability for `COc1cc(S(=O)(=O)N2CCOCC2)ccc1NC(=O)COC(=O)C12CC3CC(CC(C3)C1)C2` : what is it?
Ans: 85

Q: Quick one: viability for `Cn1c(SCc2ccc3c(c2)OCO3)nnc1-c1ccccc1` ?
Ans: 96.2

Q: Item under review: `C[C@]12CC[C@@H]3c4ccc(O[C@@H]5O[C@H](C(=O)O)[C@@H](O)[C@H](O)[C@H]5O)cc4CC[C@H]3[C@@H]1C[C@@H](O)[C@@H]2O` . Reported viability?
Ans: 102

Q: Item under review: COc1ccc(N2CCC(CNS(=O)(=O)c3cccc(C(F)(F)F)c3)C2)cc1 (stereo unspecified) . Reported viability?
Ans: 86.7

Q: Value lookup for viability; key = `CC(C)N(C=O)C1(C(=O)NC2CCCCC2)CCCCC1`
Ans: 112

Q: Value lookup for viability; key = `CCOC(=O)CSc1nnc([C@H](CC(C)C)NC(=O)OC(C)(C)C)o1`
Ans: 94.6

Q: Any idea what viability was measured for `COCCNc1nc(C(C)(C)C)nc2c1nnn2Cc1ccccc1Cl` ?
Ans: 96.1

Q: Any idea what its viability is? The molecule is O=C1CC(c2cccs2)CC2=C1C(c1ccccc1)n1ncnc1N2 (stereo unspecified)
Ans: 93.8

Q: What measured viability goes with `CCOC(=O)c1ccc(Oc2cc(C)nc(SC)n2)cc1` ?
Ans: 16.5

Q: Which viability reading was recorded for the molecule `Nc1nc2sc3c(c2c(=O)s1)CCCC3` ?
Ans: 74.7

Q: Fill in: viability of `CCc1nnc(NC(=O)c2ccc(S(=O)(=O)NC3CCCCC3)cc2)s1` is ___
Ans: 80.1

Q: So what's the measured viability for this one? COC(=O)CC1SCCNC1=O (stereo unspecified)
Ans: 95.6

Q: I would be grateful if you could share the reported viability for Cc1ccc2cc(C(c3nnnn3CC3CCCO3)N3CCCC4(CCCCC4)C3)c(=O)[nH]c2c1 (stereo unspecified) .
Ans: 85.1

Q: What viability value was documented for this molecule, COC(=O)C1=C(C)n2nnnc2NC1c1ccc(Cl)cc1 (stereo unspecified) ?
Ans: 95.3

Q: # input molecule: `Cc1c(C(=O)O)sc2ncn(C)c(=O)c12` ; wanted: its viability
Ans: 103

Q: Which viability value is on record for `COc1ccc2c(C(F)(F)F)cc(=O)oc2c1C` ?
Ans: 99.8

Q: Need viability of `CCOC(=O)N1CCN(C(=O)CCc2ccc(S(=O)(=O)NCCc3ccccc3)cc2)CC1` , thanks.
Ans: 101

Q: Would you kindly share the measured viability for CCCCCCC(C)n1[nH]c(=O)c2c(C)cc(=O)[nH]c21 (stereo unspecified) ?
Ans: 94.2

Q: Fill in: viability of `CCOc1ccccc1NS(=O)(=O)c1c(C)noc1C` is ___
Ans: 109

Q: Which value of viability has been reported for `CCOC(=O)c1oc2cccc(OC(C)=O)c2c1C` in the records?
Ans: 85.6

Q: Please give the measured viability for this molecule: CCC1(C)Cc2c(C#N)c(N)n(N)c(=S)c2CO1 (stereo unspecified)
Ans: 81.7

Q: Sample `CC(=O)N(C(C)=O)c1c(C#N)c(C)n(-c2ccccc2)c1C(=O)c1ccccc1` — what was its viability?
Ans: 77.9

Q: Recorded viability of CC(C)C(NC(=O)OCc1ccccc1)C(=O)OCC(=O)NCc1ccco1 (stereo unspecified) , please.
Ans: 85.3

Q: Which viability is listed for `c1ccc(OCCCn2nnc(-c3cccnc3)n2)cc1` ?
Ans: 108

Q: Field request: viability | item: `CCOc1ccccc1-c1nc(-c2ccc(NC(=O)Cc3ccccc3OC)cc2)no1`
Ans: 88.6

Q: Requested field: viability. Item: CC1CCCCC1NC(=O)CN1CCN(Cc2ccccc2Cl)C1=O (stereo unspecified)
Ans: 80.4

Q: // query viability value for entry `Cc1cccc(C)c1OCc1nnc2c3cnn(C)c3ncn12`
Ans: 91.9

Q: Which value of viability has been reported for `CC(=O)Nc1ccc(Oc2ccc3nc(C)[nH]c3c2)cc1` in the records?
Ans: 95.4

Q: # viability lookup, item N#CC1=C(SCC(=O)NC2CCCCC2)NC(=O)CC1c1ccco1 (stereo unspecified)
Ans: 30.6

Q: Recorded viability of `Cc1c(=O)n(OCc2ccccn2)c2ccccc2[n+]1[O-]` , please.
Ans: 94.2

Q: Can you share its viability? I mean this molecule: `Cc1[nH]c2ccccc2c(=O)c1CN(C)Cc1ccccc1`
Ans: 91.8

Q: # lookup: viability of `CC(C)C(=O)Nc1cccc(NC(=O)c2cccnc2)c1`
Ans: 97.9

Q: Can you share its viability? I mean this molecule: `O=C(Nn1c(C2CC2)nc2ccccc2c1=O)c1ccco1`
Ans: 95.4

Q: Query (molecule): `COc1ccc(Br)cc1C(=O)Nc1nnn(C)n1` ; field requested: viability
Ans: 104

Q: What measured viability goes with `Cn1c(=O)c2nc(Cl)n(Cc3ccc(Cl)cc3Cl)c2n(C)c1=O` ?
Ans: 88.3

Q: Reported viability for `c1ccc2c(Cn3ccnc3)c[nH]c2c1` : what is it?
Ans: 86

Q: Query: viability; subject: `Cc1ccc(NC(=O)CNc2cccc(C)c2C)c(C)c1`
Ans: 79.2

Q: viability for `CCOC(=O)N1CCC(NC(=O)CS(=O)(=O)Cc2nc(-c3ccccc3C)oc2C)CC1` ?
Ans: 95.7

Q: Form field: reported viability of C[N+]12CCC(CC1)C(OC(=O)C(O)(c1ccccc1)c1ccccc1)C2 (stereo unspecified)
Ans: 90.7

Q: Fill in: viability of `CCCC(=O)Nc1ccc(NC(=O)C2CC2)cn1` is ___
Ans: 102

Q: Sample `Cc1ccc(CSC2=NCCN2C(=O)C2CC2)cc1` — what was its viability?
Ans: 97

Q: Reported viability for `O=C(O)CCC(=O)Nc1ccc(S(=O)(=O)Nc2nccs2)cc1` : what is it?
Ans: 94.4

Q: # viability lookup, item CC(NC(=O)COc1ccc(Br)cc1)C(=O)O (stereo unspecified)
Ans: 91.8

====

- measurement_description: reversal of MRP1-mediated doxorubicin resistance, pilot screen, H69AR cells, doxorubicin co-treatment (AID 601)
- assay_conditions: H69AR cells + 2 uM doxorubicin, CellTiter-Glo, 72 h; at 10 µM; hits give high values
measurement_name: differential viability (reversal) (%)
// units = %; emit number, no label

Q: Can you look up the measured differential viability (reversal) of `CCOc1ccc(C(=O)N2CCN(C(=O)c3ccco3)CC2)cc1OCC` for me?
Ans: 0.255

Q: Quick one: differential viability (reversal) of `Cc1nc(NCc2ccco2)c2oc3ccccc3c2n1` ?
Ans: -1.13

Q: # differential viability (reversal) lookup, item CC(C)N1C(=O)C2C(C(=O)NC3CCCCC3)C3C=CC2(O3)C1C(=O)NC1CCCC1 (stereo not drawn)
Ans: 15.9

Q: What value of differential viability (reversal) has been recorded for this entry: `CCOC(=O)c1cccc(NC(=O)CSc2nc3ccccc3c(=O)n2CC)c1`
Ans: 4.1

Q: // returns reported differential viability (reversal) for input `Cc1cccc2cc(CN(CCN3CCCC3)C(=O)NC3CCCCC3)c(=O)[nH]c12`
Ans: -1.06

Q: # get_value(readout='differential viability (reversal)', item= `CN1/C(=C\C(=O)C(F)F)C(C)(C)c2ccccc21` )
Ans: 19.5

Q: Entry `Cc1cc(C)n2nc(S(=O)(=O)N(C)Cc3ccccc3)nc2n1` has what differential viability (reversal)?
Ans: 4.15

Q: So what's the measured differential viability (reversal) for this one? `CCOc1ccc(OCC)c(NC(=O)CCCN2C(=O)c3cccnc3C2=O)c1`
Ans: -2.52

Q: Need differential viability (reversal), item `O=C(Nc1ccc2nc(-c3cccs3)[nH]c2c1)c1ccco1`
Ans: 1.25

Q: Value lookup for differential viability (reversal); key = `Nc1ccc2[nH]ncc2c1`
Ans: -6.96

Q: Consider the compound `O=C(CSc1ncnc2ccccc12)NCCCO` and give its measured differential viability (reversal).
Ans: 12.2

Q: If you can, please state the reported differential viability (reversal) value of N#CC1=C(SCC(=O)NC2CCCCC2)NC(=O)CC1c1ccco1 (stereo not drawn) .
Ans: -52.5

Q: I'd like to know its differential viability (reversal). The compound in question is `Cn1c(-n2c(-c3ccco3)nc3ccccc3c2=O)nc2ccccc21`
Ans: 5.28

Q: Suppose we examine the compound `Cc1onc(-c2ccccc2)c1C(=O)N[C@@H]1C(=O)N2[C@@H]1SC(C)(C)[C@@H]2C(=O)O` ; what differential viability (reversal) value has been reported?
Ans: 0

Q: // differential viability (reversal) lookup, key: COc1ccc2cc(C(c3nnnn3C3CCCCC3)N3CCCCCC3)c3nnnn3c2c1 (stereo not drawn)
Ans: -2.87

Q: Returns the measured differential viability (reversal) for the input compound. Input: `O=C(NCc1ccc2c(c1)OCO2)c1ccccn1`
Ans: 3.29

Q: Return reported differential viability (reversal); argument: COc1cc(NC(=O)C2CC(c3cccc(OC)c3OC)=NO2)cc(OC)c1OC (stereo not drawn)
Ans: -41.8

Q: Reported differential viability (reversal), compound `CCOC(=O)c1c(N)sc(C(=O)N2CCOCC2)c1C` : ____
Ans: 1.31

Q: Recorded differential viability (reversal) for `Cc1cc(C)c(C)c(S(=O)(=O)Nc2ccc(O)cc2)c1C` , please?
Ans: 14.1

Q: Quick check: differential viability (reversal) of Cc1nn(C)c(C)c1S(=O)(=O)N1CCCC(C(=O)N2CCN(c3ccc(Cl)cc3)CC2)C1 (stereo not drawn) ?
Ans: 19.3

Q: Record request: differential viability (reversal) value, item `CC(C)(C)C(=O)CNS(=O)(=O)c1ccc(S(=O)(=O)NC2CCCC2)cc1`
Ans: 11.2

Q: Returns the measured differential viability (reversal) for the input compound. Input: `CCCn1c2ccccc2c2nnc(SCC(=O)Nc3ncccn3)nc21`
Ans: 10.3

Q: Quick one: differential viability (reversal) of CCOC(=O)N1CCN(C(=O)C2CC(=O)N(Cc3ccc(OC)cc3)C2)CC1 (stereo not drawn) ?
Ans: -3.47
